experiment: Cytotoxicity against mouse J774.A1 cells measured by MTT assay; assay type: toxicity, cell-based
Result Type: IC50 (µg/mL)
Answers are plain numbers, in µg/mL.

The cases that follow already have their IC50 on record.
> print(dat)
                               smiles.entry  result.type  reported
1  COC(=O)NC(=O)c1ccsc1NC(=O)c1ccc(S(=O)(=O)N2CCC(OC)CC2)cc1         IC50      54.9
2  COC(=O)NC(=O)c1ccsc1NC(=O)c1ccc(S(=O)(=O)N2CCCCC2)cc1         IC50      36.9

Here's the next entry for you.
Suppose we examine the compound CCOC(=O)NC(=O)c1ccsc1NC(=O)c1ccc(S(=O)(=O)N2CCCCC2)cc1 ; what IC50 value has been reported?
34.3
